- experimental system: T1, PCSK9 D374Y mutant protein inserted with biotin receiving peptide BP15 and His-tag: PCSK9-D374Y-BP15-His6 (human, UniProt Q8NBP7 153-692; A8T644 31-152, biotin on the BP15 biotin receiving peptide)
- T1 construct: also called PCSK9-Y; mutant PCSK9
- assay summary: ELISA, biotin PCSK9-Y on streptavidin plate
Catalogue of EC50 readings, one per entry.
Provide only the numeric value, understood in ng/mL.

Recorded EC50, per entry:
binder | reading unit | EC50
h011-3058 (antibody, V domains shown) VH: QVQLVQSGAEVKKPGASVKVSCKASGYTFTGYTIHWVRQAPGQGLEWMGEINPSGTYTKFNQKFKDRVTMTRDTSISTAYMELSRLRSDDTAVYYCARERIYSNYWFFDVWGQGTTVTVSS VL: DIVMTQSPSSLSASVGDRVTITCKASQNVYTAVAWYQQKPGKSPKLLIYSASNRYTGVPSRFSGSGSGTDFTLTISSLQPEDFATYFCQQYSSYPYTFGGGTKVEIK | ng/mL | 6.06
h011-3187 (antibody, V domains shown) VH: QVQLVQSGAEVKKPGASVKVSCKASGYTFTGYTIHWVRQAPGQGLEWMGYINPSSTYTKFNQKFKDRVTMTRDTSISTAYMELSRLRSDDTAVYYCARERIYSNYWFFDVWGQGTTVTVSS VL: DIVMTQSPSSLSASVGDRVTITCKASQNVYTAVAWYQQKPGKSPKLLIYSASNRYTGVPSRFSGSGSGTDFTLTISSLQPEDFATYFCQQLSSSPETFGGGTKVEIK | ng/mL | 7.04

### Prompt Hello, please tell me recorded EC50 for this one: h011-3093 (antibody, V domains shown) VH: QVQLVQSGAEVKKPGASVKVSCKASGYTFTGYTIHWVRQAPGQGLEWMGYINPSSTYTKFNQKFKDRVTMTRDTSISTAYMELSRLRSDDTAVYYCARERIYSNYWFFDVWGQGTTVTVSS VL: DIVMTQSPSSLSASVGDRVTITCKASQNVYTAVAWYQQKPGKSPKLLIYEMVNRYTGVPSRFSGSGSGTDFTLTISSLQPEDFATYFCQQYSSYPYTFGGGTKVEIK
### Response 9.89
